Molecular target: 5-HT1D (Homo sapiens, UniProt P28221)
Construct: gene HTR1D; human recombinant receptor, crude membranes of HEK293 or CHO cells
Sequence (P28221 whole entry): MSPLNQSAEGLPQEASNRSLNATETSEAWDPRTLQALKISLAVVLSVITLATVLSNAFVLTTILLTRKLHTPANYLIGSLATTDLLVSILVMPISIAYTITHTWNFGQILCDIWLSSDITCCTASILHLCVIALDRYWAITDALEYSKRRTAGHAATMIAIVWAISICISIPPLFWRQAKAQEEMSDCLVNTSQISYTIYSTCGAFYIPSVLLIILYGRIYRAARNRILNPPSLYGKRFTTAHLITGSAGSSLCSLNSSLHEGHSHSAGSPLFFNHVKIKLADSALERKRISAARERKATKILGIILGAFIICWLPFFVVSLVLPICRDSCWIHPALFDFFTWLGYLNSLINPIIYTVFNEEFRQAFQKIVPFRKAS
Test: biochemical
Set-up: species or system HEK293 or CHO; competitive radioligand binding on crude membranes, filtration and scintillation counting
Experimental: Eleven dilutions (5 × assay concentration) of the test and reference compounds (Table S1) were prepared in standard binding buffer (50 mM tris(hydroxymethyl)-aminomethane-HCl (Tris-HCl), 10 mM MgCl2, 1 mM ethylenediaminetetraacetate (EDTA), pH 7.4) by serial dilution: 0.05 nM, 0.5 nM, 1.5 nM, 5 nM, 15 nM, 50 nM, 150 nM, 500 nM, 1.5 μM, 5 μM, and 50 μM. […] The tubes were capped, labeled, and counted by […] scintillation counting. […]
Metric Name: inhibition at 10 µM
The reply should consist of the numeric value with the unit placed after it.

The following compounds have reported results that may help.
INSERT INTO measurements (compound, test_result) VALUES
  ('C[C@H](Oc1nc(N2CCNC[C@H]2C)ncc1F)c1cccc(F)c1 [(S,R)-4d]', '10.3%'),
  ('C[C@@H]1CNCCN1c1ncc(F)c(O[C@H](C)c2ccc(F)cc2)n1 [(R,R)-4e]', '-7.7%');

Query compound follows.
input: Query (compound): C[C@@H]1CNCCN1c1ncc(F)c(O[C@H](C)c2cccc(F)c2)n1 [(R,R)-4d] ; field requested: inhibition at 10 µM
output: -6.8%

Reference source for all entries: paper PMC6151589
